test system: SN12C renal; test: NCI tumour cell line growth inhibition, 48 h
Some molecules, each annotated with its measured TGI.
property-measured: TGI

* Cc1cc(Cl)ccc1NC(=O)CC1SC(=Nc2ccccc2Cl)NC1=O (stereo unspecified) | > 100 µM
* N/C(=N\N=C\c1ccc2c(c1)OCCO2)NO | > 100 µM
* CC(=O)OCC1OC(n2c(-c3ccc(C)cc3)cc(-c3ccccc3)c(C#N)c2=S)C(OC(C)=O)C(OC(C)=O)C1OC(C)=O (stereo unspecified) | > 100 µM
* CC(C)(C)c1cc(O)ccc1O | > 100 µM
* CCOC(=O)c1c2c(n3ccccc13)C(=O)c1ncccc1C2=O | 5.85 µM
* Nc1onc2c1Cc1c(noc1N)-c1ccccc1-2 | > 100 µM
